All figures here come from patent US11091434B2.

METHOD_DESCRIPTION: Deiodination assay: deiodination of T4 by DIO3 mimic compound A
Type: biochemical
RUN_PARAMETERS: 100 mM phosphate buffer pH 7.5, 10 mM DTT, 37° C., rT3 formation by HPLC
METRIC: inhibition of the deiodinase activity (deiodination of T4) of DIO3 mimic compound A

MOLECULE: Cc1cc(=O)[nH]c(=S)[nH]1 [MTU, 6-methyl-2-thiouracil]
TEST_VALUE: no inhibition
--
MOLECULE: CCCc1cc(=O)[nH]c(=S)[nH]1 [PTU, 6-n-propyl-2-thiouracil]
TEST_VALUE: no inhibition
--
MOLECULE: Cn1cc[nH]c1=S [MMI, 1-methyl-3H-imidazole-2-thione, reference compound]
TEST_VALUE: no inhibition
